molecular target: human GPR40 receptor (Homo sapiens); assay: IP1 accumulation measurements using the IPOne assay system in 1321N1 cells stably expressing human GPR40 receptor; details: IP1 accumulation (HTRF), 1321N1 cells stably expressing human GPR40, 1 hour stimulation at 37° C.
Sequence (O14842 whole entry): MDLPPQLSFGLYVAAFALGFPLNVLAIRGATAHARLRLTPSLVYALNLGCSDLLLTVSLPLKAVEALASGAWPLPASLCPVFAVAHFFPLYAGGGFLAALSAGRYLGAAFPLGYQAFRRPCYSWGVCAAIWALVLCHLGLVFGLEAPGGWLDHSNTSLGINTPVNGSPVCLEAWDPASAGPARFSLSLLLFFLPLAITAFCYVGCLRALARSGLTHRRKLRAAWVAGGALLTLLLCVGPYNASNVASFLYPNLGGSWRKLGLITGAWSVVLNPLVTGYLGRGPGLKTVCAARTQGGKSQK
pEC50: −log10 of the molar value.
Cut-off 8 on pEC50, inclusive. At or above means y; below means n.

Record excerpt, results attached:
compound	label
O=C(O)[C@H]1C[C@@H]1c1ccc(O[C@@H]2CCc3c(-c4ccccc4-c4cocn4)ccc(F)c32)cc1	n
O=C(O)[C@H]1C[C@@H]1c1ccc(O[C@@H]2CCc3c(-c4cccc5cnccc45)ccc(F)c32)cc1	y

INPUT: Is pEC50 at least 8? Consider Cc1cc(OCC2CCS(=O)(=O)CC2)cc(C)c1-c1c(C#N)ccc2c1CC[C@H]2Oc1ccc([C@H]2C[C@@H]2C(=O)O)cc1
OUTPUT: n

INPUT: // repeat for Cc1cc(OCC2(S(C)(=O)=O)CC2)cc(C)c1-c1ccc(F)c2c1CC[C@H]2Oc1ccc([C@H]2C[C@@H]2C(=O)O)cc1 and report
OUTPUT: y

INPUT: // repeat for Cc1ccc2c(cnn2C)c1-c1ccc(F)c2c1CC[C@H]2Oc1ccc([C@H]2C[C@@H]2C(=O)O)cc1 and report
OUTPUT: y

INPUT: // repeat for COc1cc(O[C@@H]2CCc3c2cccc3C(F)(F)F)ccc1C1CC1C(=O)O (stereo in doubt) and report
OUTPUT: n

INPUT: // repeat for Cc1ncc(-c2ccc(F)c3c2CC[C@H]3Oc2ccc([C@H]3C[C@@H]3C(=O)O)cc2)n1C and report
OUTPUT: n

INPUT: // repeat for Cc1cc(-c2nnn(C)n2)cc(C)c1-c1ccc(F)c2c1CC[C@H]2Oc1ccc([C@H]2C[C@@H]2C(=O)O)cc1 and report
OUTPUT: y

INPUT: // repeat for O=C(O)[C@H]1C[C@@H]1c1ccc(O[C@@H]2CCc3c(-c4ccncc4C(F)(F)F)ccc(F)c32)cc1 and report
OUTPUT: n

INPUT: // repeat for Cc1cc(OCC2(CO)CC2)cc(C)c1-c1ccc(F)c2c1CC[C@H]2Oc1ccc([C@H]2C[C@@H]2C(=O)O)cc1 and report
OUTPUT: y
